- TARGET ENTITY: human Arginine Vasopressin Receptor V2 (AVPR2) (Homo sapiens)
- Sequence (P30518 whole entry): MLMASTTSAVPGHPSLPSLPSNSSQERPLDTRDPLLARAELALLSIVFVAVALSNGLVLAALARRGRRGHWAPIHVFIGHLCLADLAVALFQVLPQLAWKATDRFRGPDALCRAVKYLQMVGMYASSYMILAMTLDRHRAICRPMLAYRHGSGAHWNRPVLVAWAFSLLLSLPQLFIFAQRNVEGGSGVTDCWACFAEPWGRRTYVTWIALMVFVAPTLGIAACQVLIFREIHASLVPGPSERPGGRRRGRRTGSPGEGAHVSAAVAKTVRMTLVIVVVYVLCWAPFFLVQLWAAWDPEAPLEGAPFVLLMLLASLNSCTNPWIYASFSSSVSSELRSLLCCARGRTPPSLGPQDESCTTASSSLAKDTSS
- ASSAY: Vasopressin V2 receptor antagonist assay (TR-FRET cAMP, 1321N1 cells)
- Description: The purpose of the assay was to determine the inhibitory effect of synthesized compounds on the Vasopressin receptor 2. […] Arginine Vasopressin (AVP) evokes an increase in intracellular cAMP in these cells which is measured in a TR-FRET assay using a Europium cAMP tracer and ULight labelled antibody reagents contained in a LANCE Ultra cAMP kit (Perkin Elmer #TRF0263). […] At the start of each assay day the potency of AVP was assessed and an EC80 concentration determined for subsequent compound profiling. […]
pIC50: −log10 of the molar value.
MEASUREMENT TYPE: pIC50

Answered examples (5):
Cc1ccnc(N2CC3(CN(C(=O)N4c5ccc(Cl)cc5OCC4C)C3)C2)n1 (centres unmarked) [20-12]; > 7.00
CC1COc2cc(F)c(F)cc2N1C(=O)N1CC2(C1)CN(c1cccnn1)C2 (single isomer, unassigned) [19-3-B]; ≤ 6.00
CC1COc2cc(Cl)ccc2N1C(=O)N1CC2(C1)CN(c1cc(C#N)ccn1)C2 (centres unmarked) [20-6]; > 7.00
O=C(N1CC2(C1)CN(c1cnccn1)C2)N1CCc2cc(Cl)ccc21; ≤ 6.00
COc1ccnc(N2CC3(CN(C(=O)N4c5ccc(Cl)cc5OCC4C)C3)C2)n1 (centres unmarked) [20-9]; 6.30 to 7.00

For every record below, what is its pIC50?
1. COc1ccc(N2CC3(CN(C(=O)N4CCOc5cc(Cl)ccc54)C3)C2)nc1
2. O=C(N1CC2(C1)CN(c1ccc(F)cn1)C2)N1CCc2cc(Cl)ccc21
3. O=C(N1CC2(C1)CN(c1ccc(F)cn1)C2)N1CCOc2cc(F)ccc21
4. CC1COc2cc(F)ccc2N1C(=O)N1CC2(C1)CN(c1cnccn1)C2 (single isomer, unassigned)
5. Cc1cnc(N2CC3(CN(C(=O)N4c5ccc(Cl)cc5OCC4C)C3)C2)cn1 (single isomer, unassigned)

output:
["≤ 6.00", "≤ 6.00", "≤ 6.00", "≤ 6.00", "> 7.00"]

Provide reported pIC50 for each item, in the same order as listed.
1. Cc1nc(N2CC3(CN(C(=O)N4c5ccc(Cl)cc5OCC4C)C3)C2)ncc1F (centres unmarked) [20-7]
2. COc1ccc2c(c1)OCCN2C(=O)N1CC2(C1)CN(c1ccc(F)cn1)C2
3. CC1COc2cc(Cl)ccc2N1C(=O)N1CC2(C1)CN(c1cccnc1)C2 (single isomer, unassigned) [20-1-B]
4. CC1COc2cc(Cl)ccc2N1C(=O)N1CC2(C1)CN(c1ccccn1)C2 (centres unmarked) [1-60]

output:
6.30 to 7.00
≤ 6.00
≤ 6.00
6.30 to 7.00

I have 3 compounds here; please give me pIC50 for each one.
1. CC1COc2cc(F)ccc2N1C(=O)N1CC2(C1)CN(c1ncc(F)cn1)C2 (single isomer, unassigned)
2. Cc1nc(N2CC3(CN(C(=O)N4CCOc5cc(Cl)ccc54)C3)C2)ncc1F
3. CC1COc2cc(F)ccc2N1C(=O)N1CC2(C1)CN(c1ncccc1F)C2 (single isomer, unassigned) [1-67-A]

output:
1: ≤ 6.00; 2: ≤ 6.00; 3: 6.30 to 7.00
